experiment: ATG_BRE_CIS: Attagene CIS-FACTORIAL HepG2 Assay for human Bone Morphogenetic Protein (BMP) Response Element (BRE) (AID 2282933); conditions: HepG2 BMP response element reporter, Attagene transcription factor profiling; actives raise or lower the signal
Activity calls are given as the source filed them. Rule for the calls: active = hit-call score of the fitted dose curve at least 0.9, where 1 is the maximum; inactive = score below 0.9.
endpoint label: AC50

>>> print(df.to_string())
                                 cpd_smiles  endpoint_label                     reported_result
0  C[C@]12CC[C@@H]3c4ccc(O)cc4CC[C@H]3[C@@H]1CCC2=O            AC50                            inactive
1                     CCCCOC(=O)c1ccc(O)cc1            AC50  166 µM (active) [middle of 4 runs]
2                CCCOC(=O)c1cc(O)c(O)c(O)c1            AC50                            inactive

====

read-out: Intercellular Adhesion Molecule 1 (ICAM1), ICAM1 (gene 3383); test: LTEA_HepaRG_ICAM1: Life Technologies and Expression Analysis (LTEA) Assay for Intercellular Adhesion Molecule 1 (ICAM1) using HepaRG (AID 2283507); details: mRNA level, 48 h; actives raise or lower the signal
Activity calls are given as the source filed them. Rule for the calls: active = hit-call score of the fitted dose curve at least 0.9, where 1 is the maximum; inactive = score below 0.9.
Outcome codes: class 1 for active, class 0 for inactive

compound	class label
O=C(OCCCCCCOC(=O)c1ccccc1)c1ccccc1	class 0
O=C(O)Cn1c(=O)n(Cc2ccc(Br)cc2F)c(=O)c2ccc(Cl)cc21	class 0
O=C(O)c1ccccc1C(=O)OCc1ccccc1	class 0
COc1cccc([C@H](O)C2CCN(CCc3ccc(F)cc3)CC2)c1OC	class 0
Cc1cn([C@H]2C[C@H](N=[N+]=[N-])[C@@H](CO)O2)c(=O)[nH]c1=O	class 0
O=C1CCC(C2CCCCC2)CC1	class 0
CCCCOC(=O)c1ccc(O)cc1	class 0
O=C(Nc1ccc(Cl)cc1)Nc1ccc(Cl)c(Cl)c1	class 0
CO[C@H]1/C=C/O[C@@]2(C)Oc3c(C)c(O)c4c(O)c(c(/C=N/N5CCN(C)CC5)c(O)c4c3C2=O)NC(=O)/C(C)=C\C=C\[C@H](C)[C@H](O)[C@@H](C)[C@@H](O)[C@@H](C)[C@H](OC(C)=O)[C@@H]1C	class 0
O=C(O)Cc1cc(I)c(Oc2ccc(O)c(I)c2)c(I)c1	class 1
CC(O)CC(C)(C)O (stereo not drawn)	class 0
C[C@]12CC[C@@H]3c4ccc(O)cc4CC[C@H]3[C@@H]1CCC2=O	class 0
CCOC(=O)O[C@H](C)OC(=O)c1ccc2c(c1)cc(C(=O)NC1CCN(C(C)C)CC1)n2Cc1cc(-c2ccc(Cl)s2)on1	class 0

====

read-out: Cytochrome P450 3A4 (Homo sapiens) (UniProt P08684); test: LTEA_HepaRG_CYP3A4: Life Technologies and Expression Analysis (LTEA) Assay for CYP3A4 using HepaRG (AID 2283487); settings: mRNA level, 48 h; actives raise or lower the signal
Sequence (P08684 whole entry, looked up): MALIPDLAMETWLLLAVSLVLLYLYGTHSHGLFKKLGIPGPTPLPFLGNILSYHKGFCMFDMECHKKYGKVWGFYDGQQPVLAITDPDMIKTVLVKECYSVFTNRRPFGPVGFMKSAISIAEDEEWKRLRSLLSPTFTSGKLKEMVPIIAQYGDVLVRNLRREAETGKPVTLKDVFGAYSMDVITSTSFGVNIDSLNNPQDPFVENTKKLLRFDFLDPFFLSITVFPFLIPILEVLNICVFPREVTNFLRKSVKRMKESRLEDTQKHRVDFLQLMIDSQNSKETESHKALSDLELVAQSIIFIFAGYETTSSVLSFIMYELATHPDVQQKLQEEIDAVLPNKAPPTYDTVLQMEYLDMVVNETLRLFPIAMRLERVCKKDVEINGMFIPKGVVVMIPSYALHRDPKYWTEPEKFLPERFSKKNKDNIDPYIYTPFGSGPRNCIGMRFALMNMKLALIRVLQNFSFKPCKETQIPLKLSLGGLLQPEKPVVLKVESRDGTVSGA
Calls of active or inactive are those of the source. How the source made its calls: active means hit-call score of the fitted dose curve at least 0.9, where 1 is the maximum; inactive means score below 0.9.
Outcome codes: active, inactive

>>> df
                                    compound  class_label
 0                           Oc1ccc2ccccc2c1     inactive
 1                          O=c1ccc2ccccc2o1     inactive
 2  Cc1cc2c(cc1C(F)(F)F)N(C(=O)Nc1ccc(Oc3cccnc3C)nc1)CC2       active
 3  CCN(CC)C(=O)c1cc(S(=O)(=O)Cc2ccccc2)c(N2CCC(c3ccccc3)CC2)cc1N(CC)CCN(C)C       active
 4        O=C(OCCCCCCOC(=O)c1ccccc1)c1ccccc1     inactive
 5               CCO[Si](CCCNC(N)=O)(OCC)OCC     inactive
 6  CC(C)(C)c1cc(/C=C2\SC(N)=NC2=O)cc(C(C)(C)C)c1O       active
 7  Cc1occc1C(=O)Nc1ccc(C(=O)N2CCC(F)(F)/C(=C\C(=O)N3CCC(N4CCCCC4)CC3)c3ccccc32)cc1     inactive
 8                   CCCCCCCCCCCC[N+](C)(C)C       active
 9  O=C(O)c1ccccc1-n1cc(C(=O)O)c(=O)c2cc(Nc3c(F)cc(F)cc3Cl)c(Cl)cc21       active
10                                      OCCO     inactive
11    O=C(O)Cc1cc(I)c(Oc2ccc(O)c(I)c2)c(I)c1       active
12                           Cc1cccc2ccccc12     inactive
13  CCN(Cc1cccc(S(=O)(=O)O)c1)c1ccc(C(=C2C=CC(=[N+](CC)Cc3cccc(S(=O)(=O)O)c3)C=C2)c2ccccc2S(=O)(=O)[O-])cc1     inactive
14                          O=C=NCCCCCCN=C=O     inactive
15       CCCCCCCCOc1ccc(C(=O)c2ccccc2)c(O)c1     inactive
16  COCC(C)OCC(C)OCC(C)O (stereo unspecified)     inactive
17                                 Oc1ccccc1     inactive
18  C[C@]12CC[C@@H]3c4ccc(O)cc4CC[C@H]3[C@@H]1CC[C@H]2O     inactive
19  COc1cccc([C@H](O)C2CCN(CCc3ccc(F)cc3)CC2)c1OC       active
20                     CCCCOC(=O)c1ccc(O)cc1     inactive

====

assay: APR_HepG2_MitoticArrest_24hr: Apredica 24-hour HepG2 Assay for Mitotic Arrest (AID 2282910); conditions: high-content imaging, actives raise or lower the signal
Active and inactive are the calls of the source. How the source made its calls: active means hit-call score of the fitted dose curve at least 0.9, where 1 is the maximum; inactive means score below 0.9.
Outcome codes: active, inactive

>>> df
                                    compound  class_label
 0                      O=C1CCC(C2CCCCC2)CC1     inactive
 1                      CCCCCCCCN(C)CCCCCCCC     inactive
 2  NC(=O)c1nc(-c2cccc(-c3cc(F)ccc3OCC(F)(F)C(F)(F)F)c2)n[nH]1       active
 3       CCCCCCCCOc1ccc(C(=O)c2ccccc2)c(O)c1     inactive
 4  Cc1cn([C@H]2C[C@H](N=[N+]=[N-])[C@@H](CO)O2)c(=O)[nH]c1=O     inactive
 5  Cc1ccc2oc(CN(Cc3ccccc3)C(=O)Nc3c(F)cc(F)cc3F)c(-c3ccc(Cl)cc3)c2c1     inactive
 6  Cc1oc2c(NC(=O)c3c(Cl)cccc3Cl)cccc2c1C(C)(C)O     inactive
 7           O=C1O[C@H]([C@@H](O)CO)C(O)=C1O     inactive
 8  NCc1cccc(C2CCN(C(=O)c3ccc(C#Cc4ccccc4F)o3)CC2)c1       active
 9  CN1C(=O)N(c2ccccc2Br)Cc2cnc(Nc3ccc4c(c3)OCC(CO)O4)nc21 (configuration not stated)       active
10  CCCCOC(=O)CC(CC(=O)OCCCC)(OC(C)=O)C(=O)OCCCC     inactive
11                        Cc1ncc(CO)c(CO)c1O     inactive
12                  CN1C(=O)CC[C@H]1c1cccnc1     inactive
13            Clc1cc(Cl)c2c(c1)N=C1CCCCCN1C2     inactive
14              CC1=CC(=O)/C(=C(/C)O)C(=O)O1     inactive
15  CC(O)CC(C)(C)O (configuration not stated)     inactive
16                     CCCCOC(=O)c1ccc(O)cc1     inactive
17  OC12N=C(c3ccccc3)SC1Cc1cc(Cl)ccc12 (configuration not stated)     inactive
18  COCC(C)OCC(C)OCC(C)O (configuration not stated)     inactive
19  CN(C[C@@H](CC[N+]12CCC(C3CCCCC3)(CC1)CC2)c1ccc(Cl)c(Cl)c1)C(=O)c1cc(C(F)(F)F)cc(C(F)(F)F)c1       active
20  Cc1cc2c(cc1C(F)(F)F)N(C(=O)Nc1ccc(Oc3cccnc3C)nc1)CC2       active
21                          c1ccc2n[nH]nc2c1     inactive

====

read-out: Ezrin (EZR), EZR (gene 7430); assay: LTEA_HepaRG_EZR: Life Technologies and Expression Analysis (LTEA) Assay for Ezrin (EZR) using HepaRG (AID 2283491); conditions: mRNA level, 48 h; actives raise or lower the signal
Calls of active or inactive are those of the source. The calls were made as follows: active = hit-call score of the fitted dose curve at least 0.9, where 1 is the maximum; inactive = score below 0.9.
Outcome codes: 1 (active), -1 (inactive)

                                    compound  class_label
 0  CCN(CC)C(=O)c1cc(S(=O)(=O)Cc2ccccc2)c(N2CCC(c3ccccc3)CC2)cc1N(CC)CCN(C)C           -1
 1  Cc1cc2c(cc1C(F)(F)F)N(C(=O)Nc1ccc(Oc3cccnc3C)nc1)CC2           -1
 2                            c1ccc2ccccc2c1           -1
 3                           Cc1cccc2ccccc12           -1
 4                   CCCCCCCCCCCC[N+](C)(C)C            1
 5   COCC(C)OCC(C)OCC(C)O (stereo not given)           -1
 6  NCc1cccc(C2CCN(C(=O)c3ccc(C#Cc4ccccc4F)o3)CC2)c1           -1
 7                 CCCCCCCC[Si](OCC)(OCC)OCC           -1
 8  Cc1ccc2oc(CN(Cc3ccccc3)C(=O)Nc3c(F)cc(F)cc3F)c(-c3ccc(Cl)cc3)c2c1           -1
 9  CC(C)(C)c1cc(/C=C2\SC(N)=NC2=O)cc(C(C)(C)C)c1O           -1
10  Cc1oc2c(NC(=O)c3c(Cl)cccc3Cl)cccc2c1C(C)(C)O           -1
11       CC/C(=C(/CC)c1ccc(O)cc1)c1ccc(O)cc1           -1
12       O=C(Nc1ccc(Cl)cc1)Nc1ccc(Cl)c(Cl)c1           -1
13                      O=C1CCC(C2CCCCC2)CC1           -1
14  CN1C(=O)N(c2ccccc2Br)Cc2cnc(Nc3ccc4c(c3)OCC(CO)O4)nc21 (stereo not given)           -1
15  CN(C[C@@H](CC[N+]12CCC(C3CCCCC3)(CC1)CC2)c1ccc(Cl)c(Cl)c1)C(=O)c1cc(C(F)(F)F)cc(C(F)(F)F)c1           -1
16                                 O=CCCCC=O           -1
17                           CCCCCCCCCC(=O)O           -1
18  C[C@]12CC[C@@H]3c4ccc(O)cc4CC[C@H]3[C@@H]1CC[C@H]2O           -1
19                           Oc1ccc2ccccc2c1           -1
20  CC(C)(O)c1ccc(CNC(=O)c2cccnc2Oc2ccc3nonc3c2)cc1           -1
21  Cc1occc1C(=O)Nc1ccc(C(=O)N2CCC(F)(F)/C(=C\C(=O)N3CCC(N4CCCCC4)CC3)c3ccccc32)cc1           -1
22           CCCCCCCCOC(=O)c1cc(O)c(O)c(O)c1           -1
23                              CCCCCCCCCCCO           -1
24        O=C(OCCCCCCOC(=O)c1ccccc1)c1ccccc1           -1
25           O=C1O[C@H]([C@@H](O)CO)C(O)=C1O           -1
26  CC(C)(c1cc(Br)c(O)c(Br)c1)c1cc(Br)c(O)c(Br)c1           -1
27              c1ccc(C[n+]2cccc3ccccc32)cc1            1
28                          CCCCCc1ccc(N)cc1           -1
29  O=C(O)Cn1c(=O)n(Cc2ccc(Br)cc2F)c(=O)c2ccc(Cl)cc21           -1
30  CC(C)(C)c1csc(-c2cc3cc(OCc4ccccc4CC(=O)O)ccc3o2)n1            1
31  Cc1cn([C@H]2C[C@H](N=[N+]=[N-])[C@@H](CO)O2)c(=O)[nH]c1=O           -1
32                          O=c1ccc2ccccc2o1           -1
33  CCOC(=O)O[C@H](C)OC(=O)c1ccc2c(c1)cc(C(=O)NC1CCN(C(C)C)CC1)n2Cc1cc(-c2ccc(Cl)s2)on1           -1
34    Clc1ccccc1C(c1ccccc1)(c1ccccc1)n1ccnc1           -1
